Consider the following variants; for each one, report its self-cleavage.
B1: Twister Ribozyme (parent)
chain: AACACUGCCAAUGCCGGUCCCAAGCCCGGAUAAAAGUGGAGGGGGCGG

# Variants of: B1
# METHOD_SUMMARY: self-cleavage, relative activity (ratio to wild type); higher = more cleavage; co-transcriptional
Answers are plain numbers.

Exercise: Any idea what self-cleavage was measured for G24U C27U ?
Solution: 0.13

Exercise: Queued: A2U C20U
Solution: 0.3

Exercise: Queued: A4G A30C
Solution: 0.736

Dear colleague, could you send me self-cleavage for each of the items below? Thanks.
1. A2C G36C
2. C19A C27U
3. G29U G41U
4. C19A G29C
5. G41A G42A
6. A10G A35U
7. A22G G42U
8. C25A G47C

Solution:
[0.0351, 0.0993, 0.521, 0.0998, 0.129, 0.943, 0.0653, 0.0869]

Cited source: the RNAGym collection of RNA variant scans (doi:10.7554/elife.80360)
